assaySystem: T1, GUCY2C protein (Ser24-Gln430) (Homo sapiens (Human), UniProt P25092 24-430)
T1 construct: Synthesized by GenScript and used as the immunogen; No tags are stated; also called extracellular region of the artificially synthesized GUCY2C protein; Protein GUCY2C
T1 sequence (P25092 24-430): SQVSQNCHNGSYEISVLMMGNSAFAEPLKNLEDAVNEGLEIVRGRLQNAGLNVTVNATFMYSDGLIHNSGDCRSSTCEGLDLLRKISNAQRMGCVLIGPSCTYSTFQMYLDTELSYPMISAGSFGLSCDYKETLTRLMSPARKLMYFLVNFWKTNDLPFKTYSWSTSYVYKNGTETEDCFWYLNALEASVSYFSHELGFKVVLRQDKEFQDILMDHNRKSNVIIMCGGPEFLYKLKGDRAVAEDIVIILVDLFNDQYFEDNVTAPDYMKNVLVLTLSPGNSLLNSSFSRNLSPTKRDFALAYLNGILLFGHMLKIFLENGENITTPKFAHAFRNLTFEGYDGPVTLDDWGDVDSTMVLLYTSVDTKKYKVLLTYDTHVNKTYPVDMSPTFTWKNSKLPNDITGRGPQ
protocolText: Screening ELISA: culture supernatant of the IPTG-induced HB2151 clone on a plate coated with 1 ug/ml GUCY2C; detection with peroxidase goat anti-alpaca IgG (VHH domain), TMB, absorbance at 450 nm; VHH concentration not given; negative control (NC) bar in the same chart is labelled 0.15
Answer each item with its documented OD450.
Note: the reply should be a number with no unit written.

Enquiry: Tell me the measured OD450 of C13 (VHH, Alpaca VHH tested as culture supernatant of IPTG-induced HB2151 bacteria (pComb3XSS phagemid); also called clone C13) VHH: QVQLVESGGGLVQPGGSLRLSCAASSNIFRAYGMDWYRQAPGKQREMVATIWLSGRTTYTDAVKGRFTISRDNAKNTVYLQMNSLKPEDTAVYYCNAGAPTASSGRQYWGQGTQVTVSS , please.
Return: 0.8

Enquiry: Tell me the measured OD450 of C30 (VHH, Alpaca VHH tested as culture supernatant of IPTG-induced HB2151 bacteria (pComb3XSS phagemid); also called clone C30) VHH: QVQLVESGGGLVQPGGSLRLSCAASGSIFRVYGMDWYRQAPGKQRELVASIFLSGRTNYADAVKGRFTLSRDNAKNTMYLQMNSLKPEDTAVYYCNAGETTASSVRQYWGQGTQVTVSS , please.
Return: 0.93

Enquiry: Tell me the measured OD450 of C27 (VHH, Alpaca VHH tested as culture supernatant of IPTG-induced HB2151 bacteria (pComb3XSS phagemid); also called clone C27) VHH: EVQLVESGGGLVQPGGSLRLSCTSSSNIFKIYGMDWYRQAPGKQREIVATIYLSGRTTYSDAVKGRFTISRDNAKNTVYLQMNTLKPEDTAVYYCNAGETTASSVRQYWGQGTQVTVSS , please.
Return: 1.47

Enquiry: Tell me the measured OD450 of C12 (VHH, Alpaca VHH tested as culture supernatant of IPTG-induced HB2151 bacteria (pComb3XSS phagemid); also called clone C12) VHH: QVQLVESGGGLVQPGGSLRLSCAASSNIFRAYGMDWYRQAPGKQREMVATIWLSGRSTYTDAVKGRFTISRDNAKNTVYLQMNNLKPEDTAVYYCNAGPTTASSVRQYWGQGTQVTVSS , please.
Return: 2

Where these numbers come from: patent US20240059794A1
